Test system: BJ
Test summary: cytotoxicity toward BJ-TERT fibroblasts, dose response, cell-based, RAS-independent, luminescence (AID 1933)
Assay type: functional
Test context: Homo sapiens
The source made the active and inactive calls.
Readout type: EC50

# annotated cases, reported EC50 shown
Looking for the measured EC50 of O=C(/C=C/c1cccc(Cl)c1)c1ccc([N+](=O)[O-])o1 , can you help? > 150 µM (inconclusive)

Looking for the measured EC50 of OC(CNCCC1C=Nc2ccccc21)Cn1c2ccc(Cl)cc2c2cc(Cl)ccc21 (stereo not given) , can you help? 5.3 µM (inconclusive)

---
Looking for the measured EC50 of CCOc1cccc(/C=N/Nc2ccc(S(=O)(=O)N(CC)CC)cn2)c1O , can you help? 2.86 µM (active)

Looking for the measured EC50 of O=[N+]([O-])c1c(Nc2ccc(O)cc2)cc(Cl)c2nonc12 , can you help? 1.92 µM (inconclusive)

Looking for the measured EC50 of COc1cc(C(=O)N2CCN(c3ccc(C)cc3C)CC2)cc(OC)c1OC , can you help? 11.9 µM (active)

----------
For reference, AC50 measured on Cytochrome P450 3A4 (Homo sapiens, UniProt P08684):

Looking for the measured AC50 of CCCC(=O)NC(Nc1ccccc1F)C(Cl)(Cl)Cl (stereo not given) , can you help? 14.1 µM (inconclusive)

Looking for the measured AC50 of COc1ccc(/C=C2\N=C(SC)N(C)C2=O)cc1 , can you help? 28.2 µM (inconclusive)

Looking for the measured AC50 of COc1cc2c(cc1OC)C(C(=O)Nc1cccc(C)n1)C(c1cccnc1)N(C)C2=O (stereo not given) , can you help? 15.8 µM (inconclusive)

---
Looking for the measured AC50 of COc1cc(/C=N/NC(=O)c2cccs2)ccc1OCc1ccccc1 , can you help? 15.8 µM (inconclusive)

Looking for the measured AC50 of COCC(=O)N1CCC[C@@]2(CCN(Cc3nccs3)C2)C1 , can you help? 20 µM (inconclusive)

Looking for the measured AC50 of N#Cc1cccc(-c2nc(NCc3ccccc3)c3ccccc3n2)c1 , can you help? 20 µM (inconclusive)

Looking for the measured AC50 of CCNc1ncc2nc(-c3ccccc3)c(=O)n(CCc3ccccc3)c2n1 , can you help? 15.8 µM (inconclusive)

----------
Tested target: COUP transcription factor 2 (Homo sapiens);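 note: HEK293 cells transiently cotransfected with COUP-TFII expression vector and reporter; luciferase reporter luminescence driven by COUP-TFII from the pX2-168 reporter plasmid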
Sequence (P24468 whole entry): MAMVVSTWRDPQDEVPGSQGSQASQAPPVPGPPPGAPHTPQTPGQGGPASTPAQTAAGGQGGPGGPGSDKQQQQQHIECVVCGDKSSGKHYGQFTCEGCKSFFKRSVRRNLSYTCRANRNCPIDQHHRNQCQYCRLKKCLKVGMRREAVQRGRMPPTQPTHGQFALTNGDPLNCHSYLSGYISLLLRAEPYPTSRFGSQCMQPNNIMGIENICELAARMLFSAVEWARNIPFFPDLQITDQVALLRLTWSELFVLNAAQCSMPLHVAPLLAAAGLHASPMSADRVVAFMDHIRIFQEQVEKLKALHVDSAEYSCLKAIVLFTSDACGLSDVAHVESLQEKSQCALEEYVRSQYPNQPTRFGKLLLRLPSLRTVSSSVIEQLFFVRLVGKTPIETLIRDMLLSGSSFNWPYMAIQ
Test summary: Luminescence-based cell-based high throughput dose response assay to identify inhibitors of COUP-TFII (NR2F2).
Format: functional
Activity calls are given as the source filed them.
Respond with a class label; see active, inactive

Example entries and their recorded answers appear below.
State the result this test recorded for Cn1nccc1C(=O)NC1CCCc2c1cnn2-c1ccc(C(C)(C)C)cc1 (centres undefined) . active

State the result this test recorded for Cc1n[nH]c(C(F)(F)F)c1N=NN1CCOCC1 . inactive

State the result this test recorded for N=c1c2c(n(Cc3ccc(Cl)cc3)c3c1CCC3)CCC2 . active

Query compound follows.
State the result this test recorded for CC(C)CNc1ncnc2c1ncn2[C@H]1CN(Cc2ccc(-c3ccccc3)cc2)C[C@@H](CO)O1 . active
